Molecular target: FAK (Homo sapiens)
Construct: endogenous in cells; host or cells: Caco-2 (human, ATCC)
Assay: Cell-based FAK-Tyr-397 activation (Western blot, Caco-2 cells)
Conditions: Cell-based FAK-Tyr-397 activation
property-measured: FAK-Tyr-397/FAK fold change (fold change)
Just the number please, in fold change, no unit attached.

// below: answered molecules
* CCN(C(=O)Nc1ccccc1N1CCOCC1)C(C)c1ccccc1 (stereo not shown) | 1.1
* O=C(Nc1ccccc1N1CCOCC1)N1CCCC1c1ccncc1 (stereo not shown) | 1.1
* O=C(Nc1cc(C(F)(F)F)ccc1C1CCOCC1)N1CCCC1c1ccccc1 (stereo not shown) | 1.0

Tell me the measured FAK-Tyr-397/FAK fold change of O=C(Nc1cc(C(F)(F)F)ccc1N1CCOCC1)N1CCCC1c1ccc(O)cc1 (stereo not shown) , please.
1.1

---

Assay: Solubility
Type: physicochemical
Details: PBS buffer, pH 7.4, aqueous buffer
property-measured: solubility (µM)
Just the number please, in µM, no unit attached.

Tell me the measured solubility of O=C(Nc1cc(C(F)(F)F)ccc1N1CCOCC1)N1CCCC1c1ccncc1 (stereo not shown) , please.
252

---

Experiment: Plasma protein binding
Assay type: in vitro ADME
Details: plasma
property-measured: fraction unbound
Provide a numeric answer; units are not to be included.

Tell me the measured fraction unbound of O=C(Nc1cc(C(F)(F)F)ccc1N1CCOCC1)N1CCCC1c1ccncc1 (stereo not shown) , please.
0.0949

---

Molecular target: CYP 2C9 (Homo sapiens)
Sequence (P11712 whole entry): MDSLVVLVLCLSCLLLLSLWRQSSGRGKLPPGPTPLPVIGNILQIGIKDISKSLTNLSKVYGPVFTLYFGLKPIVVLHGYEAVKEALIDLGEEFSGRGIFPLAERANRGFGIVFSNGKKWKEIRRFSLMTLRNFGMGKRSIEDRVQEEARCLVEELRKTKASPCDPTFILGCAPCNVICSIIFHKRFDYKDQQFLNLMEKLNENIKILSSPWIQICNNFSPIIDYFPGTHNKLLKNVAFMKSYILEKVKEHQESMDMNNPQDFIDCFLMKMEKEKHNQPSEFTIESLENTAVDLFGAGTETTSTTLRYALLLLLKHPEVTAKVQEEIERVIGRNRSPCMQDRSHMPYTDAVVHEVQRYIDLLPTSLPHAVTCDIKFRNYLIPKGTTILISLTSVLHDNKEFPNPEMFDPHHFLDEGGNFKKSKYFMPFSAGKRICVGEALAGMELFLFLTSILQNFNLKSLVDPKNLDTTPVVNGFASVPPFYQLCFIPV
property-measured: pIC50
# reply with the number alone; pIC50 is -log10 of concentration in mol/L

pIC50 of O=C(Nc1cc(C(F)(F)F)ccc1N1CCOCC1)N1CCCC1c1ccncc1 (stereo not shown) on CYP 2C9 (Homo sapiens)?
5.35

---

Biological target: CYP 2D6 (Homo sapiens)
Sequence (P10635 whole entry): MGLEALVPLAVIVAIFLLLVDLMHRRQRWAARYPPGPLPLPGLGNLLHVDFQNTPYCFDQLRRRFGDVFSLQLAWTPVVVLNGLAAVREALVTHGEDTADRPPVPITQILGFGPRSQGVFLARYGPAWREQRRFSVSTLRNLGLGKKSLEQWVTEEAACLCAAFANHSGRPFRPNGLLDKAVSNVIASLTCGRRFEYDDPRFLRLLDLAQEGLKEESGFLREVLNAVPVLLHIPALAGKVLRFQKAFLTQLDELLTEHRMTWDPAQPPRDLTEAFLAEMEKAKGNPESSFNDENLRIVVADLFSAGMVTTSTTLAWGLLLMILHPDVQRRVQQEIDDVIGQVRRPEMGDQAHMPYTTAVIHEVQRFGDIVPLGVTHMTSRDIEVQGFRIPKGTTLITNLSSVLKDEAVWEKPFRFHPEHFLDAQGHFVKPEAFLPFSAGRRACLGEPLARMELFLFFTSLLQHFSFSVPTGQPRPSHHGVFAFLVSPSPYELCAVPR
property-measured: IC50 (µM)
Just the number please, in µM, no unit attached.

Tell me the measured IC50 of O=C(Nc1cc(C(F)(F)F)ccc1N1CCOCC1)N1CCCC1c1ccncc1 (stereo not shown) , please.
10.1

---

Assay: in vivo
Details: mouse, 1.25 mg/kg
property-measured: concentration at 4 days (ng/mL)
Just the number please, in ng/mL, no unit attached.

Tell me the measured concentration at 4 days of CN(C)C(CNC(=O)Nc1cc(C(F)(F)F)ccc1N1CCOCC1)c1ccncc1 (stereo not shown) , please.
26

---

Target: FAK (Homo sapiens, UniProt Q05397)
Construct: endogenous in cells; host or cells: Caco-2 (human, ATCC)
Sequence (Q05397 whole entry): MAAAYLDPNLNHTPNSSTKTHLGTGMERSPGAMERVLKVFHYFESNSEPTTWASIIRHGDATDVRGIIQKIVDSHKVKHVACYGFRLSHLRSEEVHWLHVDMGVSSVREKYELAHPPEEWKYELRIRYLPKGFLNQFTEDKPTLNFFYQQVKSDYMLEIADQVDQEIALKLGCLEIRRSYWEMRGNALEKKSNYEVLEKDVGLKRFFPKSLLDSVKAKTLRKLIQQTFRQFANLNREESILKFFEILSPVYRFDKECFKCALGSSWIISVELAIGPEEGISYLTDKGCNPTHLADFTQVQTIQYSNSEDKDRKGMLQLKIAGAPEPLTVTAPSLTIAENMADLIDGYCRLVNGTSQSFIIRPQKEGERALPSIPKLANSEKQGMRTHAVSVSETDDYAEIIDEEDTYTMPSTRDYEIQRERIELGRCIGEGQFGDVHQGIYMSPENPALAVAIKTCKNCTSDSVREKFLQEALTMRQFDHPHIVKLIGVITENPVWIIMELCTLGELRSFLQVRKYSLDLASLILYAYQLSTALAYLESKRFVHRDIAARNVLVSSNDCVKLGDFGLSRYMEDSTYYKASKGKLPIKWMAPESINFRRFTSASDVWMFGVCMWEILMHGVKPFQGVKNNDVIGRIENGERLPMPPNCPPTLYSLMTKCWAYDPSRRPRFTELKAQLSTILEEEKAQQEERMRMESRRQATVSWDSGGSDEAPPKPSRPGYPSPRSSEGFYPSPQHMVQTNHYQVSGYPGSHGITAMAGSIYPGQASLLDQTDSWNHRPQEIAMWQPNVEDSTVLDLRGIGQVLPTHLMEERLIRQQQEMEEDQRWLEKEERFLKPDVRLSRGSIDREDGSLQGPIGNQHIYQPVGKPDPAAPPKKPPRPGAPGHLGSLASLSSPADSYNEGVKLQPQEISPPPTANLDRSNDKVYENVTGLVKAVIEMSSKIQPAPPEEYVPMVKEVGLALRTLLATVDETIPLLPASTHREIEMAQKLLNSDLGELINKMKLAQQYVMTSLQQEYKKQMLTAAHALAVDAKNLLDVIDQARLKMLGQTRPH
Assay: Cell-based FAK-Tyr-397 activation (Western blot, Caco-2 cells)
Conditions: vs. DMSO vehicle control
property-measured: FAK activation / FAK-Tyr-397 phosphorylation (in words)

• O=C(Nc1cc(C(F)(F)F)ccc1N1CCOCC1)N1CCCC1c1ccncc1 (centres unmarked) = seemed to activate FAK
• O=C(Nc1cc(C(F)(F)F)ccc1N1CCOCC1)N1CCCC1c1ccccc1 (centres unmarked) = seemed to activate FAK
• O=C(Nc1cc(C(F)(F)F)ccc1N1CCOCC1)N1CCCC1C1CCCCC1 (centres unmarked) = seemed to activate FAK

---

Molecular target: FAK (Homo sapiens)
Construct: endogenous in cells
Test: Cell-based FAK-Tyr-397 activation (Western blot, Caco-2 cells)
Settings: in vitro; assay not named in Table 4; read-out: FAK potency EC50
property-measured: EC50

Tell me the measured EC50 of O=C(Nc1cc(C(F)(F)F)ccc1N1CCOCC1)N1CCCC1c1ccncc1 (stereo not shown) , please.
< 10 nM

---

Test: in vivo
Settings: mouse, T1/2
property-measured: half-life

* CN(C)C(CNC(=O)Nc1cc(C(F)(F)F)ccc1N1CCOCC1)c1ccncc1 (centres unmarked) [Compound 40] | ~1.5 h

Tell me the measured half-life of O=C(Nc1cc(C(F)(F)F)ccc1N1CCOCC1)N1CCCC1c1ccncc1 (centres unmarked) [Compound 24] , please.
~1.5 h

---

Test: in vivo
Conditions: mouse, plasma half-life
property-measured: half-life (h)
Just the number please, in h, no unit attached.

Tell me the measured half-life of CN(C)C(CNC(=O)Nc1cc(C(F)(F)F)ccc1N1CCOCC1)c1ccncc1 (stereo not shown) , please.
1.5
